# reported MIC; entries follow
- System: Escherichia coli
- method: Antibacterial activity against Escherichia coli MTCC 443 after 24 hr by broth microdilution method
- Assay type: functional
- measurement setup: MTCC 443, 24 h
State just the number; it will be interpreted in µg/mL.

COc1ccc2nc(Cl)c(-c3c(C#N)c(N)nc(Sc4ccccc4)c3C#N)cc2c1: 500

Qu. Given the entry "Cc1ccc2cc(-c3c(C#N)c(N)nc(Sc4ccc(Cl)cc4)c3C#N)c(Cl)nc2c1" , report its measured MIC.
Ans. 500

Qu. Follow-up entry: "CC1(C)S[C@@H]2[C@H](NC(=O)[C@H](N)c3ccccc3)C(=O)N2[C@H]1C(=O)O"
Ans. 100

Qu. Follow-up entry: "Cc1ccc2cc(-c3c(C#N)c(N)nc(Sc4ccccc4)c3C#N)c(Cl)nc2c1"
Ans. 100

Qu. Follow-up entry: "N#Cc1c(N)nc(Sc2ccc(Cl)cc2)c(C#N)c1-c1cc2ccccc2nc1Cl"
Ans. 100

----------
- Tested on: Escherichia coli
- method: Antibacterial activity against Escherichia coli MTCC 443 after 24 hr by broth microdilution method
- Format: functional
- measurement setup: MTCC 443, 24 h
metric name: MIC (µg/mL)
State just the number; it will be interpreted in µg/mL.

Below, 2 molecules whose answers are already recorded.
N#Cc1c(N)nc(Sc2ccccc2)c(C#N)c1-c1cc2cc(Cl)ccc2nc1Cl: 200
Cc1ccc(Sc2nc(N)c(C#N)c(-c3cc4cc(C)ccc4nc3Cl)c2C#N)cc1: 250

Qu. Given the entry "Cc1ccc(Sc2nc(N)c(C#N)c(-c3cc4ccc(C)cc4nc3Cl)c2C#N)cc1" , report its measured MIC.
Ans. 200
